target-or-system: T1, FZD10 CRD (Homo sapiens, UniProt Q9ULW2)
T1 construct: 30-156; GPI anchor signal (C); expressed in transfected cells; host or cells: CHO cells, lentiviral pLenti-puro
T1 sequence (Q9ULW2 30-156): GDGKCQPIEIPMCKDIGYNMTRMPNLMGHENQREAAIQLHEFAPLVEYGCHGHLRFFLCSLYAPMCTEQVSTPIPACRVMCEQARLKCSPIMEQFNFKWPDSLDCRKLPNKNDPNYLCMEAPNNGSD
assay-overview: Immunofluorescence of anti-FZD5 Fab binding to CHO cells overexpressing Frizzled CRD
Parameters: key: −: no binding; +: very weak binder; ++: weak binder; +++: good binder; ++++: very good binder
outcome-measure: Immunofluorescence binding, Frizzled CRD overexpressed on CHO cells: FZD10

molecule: Fab-2914: anti-FZD5 Fab with antibody variable region Fv-2914; CDR SEQ ID NOs: 35, 36, 53, 92, 129, 162 (antibody, V domains shown) VH: EVQLVESGGGLVQPGGSLRLSCAASGFNIYYSYMHWVRQAPGKGLEWVASIYPSSSSTSYADSVKGRFTISADTSKNTAYLQMNSLRAEDTAVYYCARGAMDYWGQGTLVTVSS VL: DIQMTQSPSSLSASVGDRVTITCRASQSVSSAVAWYQQKPGKAPKLLIYSASSLYSGVPSRFSGSRSGTDFTLTISSLQPEDFATYYCQQWYYGSLITFGQGTKVEIK
readout-value: −

Taken from patent US20210253718A1.
